Parameter 'readout' = IC50; parameter 'system' = JAK1 (Homo sapiens (Human), UniProt P23458).
Sequence (P23458 whole entry, species assumed): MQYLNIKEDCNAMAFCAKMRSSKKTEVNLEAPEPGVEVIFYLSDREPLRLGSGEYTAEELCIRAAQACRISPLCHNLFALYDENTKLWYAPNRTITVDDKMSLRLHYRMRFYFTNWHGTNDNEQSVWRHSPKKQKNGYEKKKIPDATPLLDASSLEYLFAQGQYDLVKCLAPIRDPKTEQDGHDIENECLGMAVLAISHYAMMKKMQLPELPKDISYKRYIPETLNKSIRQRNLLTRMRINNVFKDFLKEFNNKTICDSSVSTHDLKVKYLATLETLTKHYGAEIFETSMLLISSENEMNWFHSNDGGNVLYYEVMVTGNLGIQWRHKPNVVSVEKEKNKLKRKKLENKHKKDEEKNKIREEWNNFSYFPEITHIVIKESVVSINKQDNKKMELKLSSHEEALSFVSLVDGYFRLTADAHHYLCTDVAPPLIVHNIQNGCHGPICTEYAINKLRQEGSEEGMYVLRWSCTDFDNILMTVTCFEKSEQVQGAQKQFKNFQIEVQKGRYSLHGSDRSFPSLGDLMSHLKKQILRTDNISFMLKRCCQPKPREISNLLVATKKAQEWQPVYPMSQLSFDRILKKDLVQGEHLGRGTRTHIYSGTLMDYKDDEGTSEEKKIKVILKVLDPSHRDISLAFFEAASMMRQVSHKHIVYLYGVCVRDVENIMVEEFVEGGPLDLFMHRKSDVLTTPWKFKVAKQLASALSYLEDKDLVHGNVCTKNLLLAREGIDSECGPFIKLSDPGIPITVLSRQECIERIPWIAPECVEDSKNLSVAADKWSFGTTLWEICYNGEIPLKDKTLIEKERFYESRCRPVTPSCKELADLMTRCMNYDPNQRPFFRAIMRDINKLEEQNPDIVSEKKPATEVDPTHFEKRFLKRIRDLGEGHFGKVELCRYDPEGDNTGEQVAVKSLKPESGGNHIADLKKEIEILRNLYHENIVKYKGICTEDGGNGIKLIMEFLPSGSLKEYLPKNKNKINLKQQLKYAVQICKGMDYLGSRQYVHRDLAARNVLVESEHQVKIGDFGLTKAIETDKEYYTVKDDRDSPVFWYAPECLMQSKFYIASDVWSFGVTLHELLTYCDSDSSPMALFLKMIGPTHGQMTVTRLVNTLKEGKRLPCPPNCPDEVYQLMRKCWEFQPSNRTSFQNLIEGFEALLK
Where a name gives a salt, the structure may show the parent alone.
Recorded metric: IC50 (nM)

[P] CCc1cc(O)c(F)cc1-c1cc2[nH]ncc2c(N(C)Cc2ccccc2N(C)S(C)(=O)=O)n1 [Example 146, hydrochloride]
[Q] CCc1cc(O)c(F)cc1-c1cc2[nH]ncc2c(NCc2cc(C)ccc2N(C)S(C)(=O)=O)n1 [Example 132, hydrochloride]
Incoming: Compare IC50: is it lower for P or for Q ? Identify your pick by its label.
Outgoing: P

[I] CN(c1ncccc1CNc1nc(-c2cc(F)c(O)cc2CC(F)(F)F)cc2[nH]nc(C(N)=O)c12)S(C)(=O)=O
[II] CCN(c1ccc(F)cc1CNc1nc(-c2cc(F)c(O)cc2CC(F)(F)F)cc2[nH]nc(C(N)=O)c12)S(C)(=O)=O
Incoming: Lab note: check whether I or II shows the higher recorded IC50. Identify your pick by its label.
Outgoing: II

[a] CCc1cc(O)c(F)cc1-c1cc2[nH]nc(C(=O)NC)c2c(NCc2ccccc2N(C)S(N)(=O)=O)n1
[b] CCc1cc(O)c(F)cc1-c1cc2[nH]nc(C(=O)NC)c2c(NCc2ccccc2N(C)S(=O)(=O)CC)n1
[c] CCc1cc(O)c(F)cc1-c1cc2[nH]nc(-c3nnc(C)[nH]3)c2c(NCc2ccccc2N(C)S(C)(=O)=O)n1
[d] CCc1cc(O)cc(C)c1-c1cc2[nH]ncc2c(NCc2ccccc2N(C)S(C)(=O)=O)n1
Incoming: Rank ascending by IC50. Please respond with the labels ordered as the question requires.
Outgoing: b, c, a, d
